Test system: HIV-1 single-round infectious reporter virus
Experiment: Single-round infectious HIV-1 luciferase reporter virus infection of HeLa CD4 cells (antiviral EC50)
Assay type: cell-based
Conditions: Human immunodeficiency virus 1, HeLa, read-out: EC50 Group from Table 3
Reported property: EC50

Examples with answers:
Compound	Reported property	Result
CN1CCN(C(=O)c2cc(-c3ncc(F)c4c(C(=O)C(=O)N5CCN(c6nnnn6-c6ccccc6)CC5)c[nH]c34)n[nH]2)CC1 [F-1]	EC50	< 0.5 µM
COc1cnc(-n2cnc(C)n2)c2[nH]cc(C(=O)C(=O)N3CCN(c4nn[nH]c4-c4ccccn4)CC3)c12 [G-24b]	EC50	< 0.5 µM
COc1cnc(-n2cnc(C)n2)c2[nH]cc(C(=O)C(=O)N3CCN(c4nsnc4Cl)CC3)c12 [D-20]	EC50	< 0.5 µM
COc1cnc(-n2cnc(C)n2)c2[nH]cc(C(=O)C(=O)N3CCN(c4ncccc4C(=O)NCCCN(C)C)CC3)c12 [D-51]	EC50	> 0.5 µM
O=C(C(=O)N1C[C@@H]2CC[C@H]1CN2c1nnnn1-c1ccccc1)c1c[nH]c2c(-n3ccnn3)ncc(F)c12 [A-72]	EC50	< 0.5 µM

Give EC50 for all compounds that follow.
1. COc1ncc(OC)c2c(C(=O)C(=O)N3CCN(c4nnnn4-c4ccccc4)CC3)c[nH]c12 [A-12]
2. O=C(C(=O)N1CCN(C2=NCCCN2c2ccccc2)CC1)c1c[nH]c2c(-n3ccnn3)ncc(F)c12 [A-40]

Result:
< 0.5 µM
> 0.5 µM

Give EC50 for all compounds that follow.
1. COc1cnc(-n2cnc(C)n2)c2[nH]cc(C(=O)C(=O)N3CCN(c4ncccc4C)CC3)c12 [D-3]
2. COc1cnc(-c2cnc(C)s2)c2[nH]cc(C(=O)C(=O)N3CCN(c4nnnn4-c4ccccn4)CC3)c12 [B-90]
3. O=C(C(=O)N1CCN(c2ccccc2C(F)(F)F)CC1)c1c[nH]c2c(-n3ccnn3)ncc(F)c12 [A-52]
4. COc1cnc(-c2csc(C3OCCO3)n2)c2[nH]cc(C(=O)C(=O)N3CCN(c4nnnn4-c4ccccc4)CC3)c12 [B-58]
5. COc1cnc(-n2cnc(C)n2)c2[nH]cc(C(=O)C(=O)N3CCN(c4nccnc4OC(C)C)CC3)c12 [D-49]
6. CN(C)c1cnc(C(=O)NCCO)c2[nH]cc(C(=O)C(=O)N3CCN(c4nnnn4-c4ccccc4)CC3)c12 [B-56]

Result:
1: < 0.5 µM; 2: < 0.5 µM; 3: > 0.5 µM; 4: < 0.5 µM; 5: < 0.5 µM; 6: < 0.5 µM

Report EC50 for every entry below.
1. COc1cnc(-c2cc(C(=O)NCCN3CCCC3)[nH]n2)c2[nH]cc(C(=O)C(=O)N3CCN(c4nnnn4-c4ccccc4)CC3)c12 [B-11]
2. COc1ccc(-n2nnnc2N2CCN(C(=O)C(=O)c3c[nH]c4c(-n5ccnn5)ncc(F)c34)CC2)cc1 [E-10]
3. C[C@@H]1CN(C(=O)C(=O)c2c[nH]c3c(-n4ccnn4)ncc(F)c23)CCN1c1nnnn1-c1ccccc1 [A-45]
4. COc1cnc(-n2cnc(C)n2)c2[nH]cc(C(=O)C(=O)N3C[C@H](C)N(c4nnnn4-c4ccccc4)C[C@H]3C)c12 [A-32]
5. O=C(C(=O)N1CCN(c2ccnnc2-c2ccccc2)CC1)c1c[nH]c2c(-n3ccnn3)ncc(F)c12 [G-15a]

Result:
< 0.5 µM
> 0.5 µM
< 0.5 µM
< 0.5 µM
< 0.5 µM
